Molecular target: Human immunodeficiency virus type 1 protease (Human immunodeficiency virus 1, UniProt Q72874)
Experiment: Inhibitory activity of the Compound was tested against HIV protease enzyme.(value reported by Roche group)
pIC50: −log10 of the molar value.
In this section we review reported pIC50 values for a set of compounds.

{"COMPOUND": "CC(C)(C)NC(=O)[C@@H]1CCCN1C[C@@H](O)[C@H](Cc1ccccc1)NC(=O)[C@H](CC(N)=O)NC(=O)OCc1ccccc1", "QUALIFIER": "=", "pIC50": 6.68}
{"COMPOUND": "CC(C)(C)NC(=O)[C@@H]1CC2CCCCC2CN1C[C@@H](O)[C@H](Cc1ccccc1)NC(=O)[C@H](CC(N)=O)NC(=O)OCc1ccccc1 (some centres undefined)", "QUALIFIER": ">", "pIC50": 8.57}
{"COMPOUND": "CC(C)(C)NC(=O)[C@@H]1CCCCN1C[C@@H](O)[C@H](Cc1ccccc1)NC(=O)[C@H](CC(N)=O)NC(=O)OCc1ccccc1", "QUALIFIER": "=", "pIC50": 7.74}
{"COMPOUND": "CC(C)(C)OC(=O)[C@@H]1CCCN1C[C@@H](O)[C@H](Cc1ccccc1)NC(=O)OCc1ccccc1", "QUALIFIER": "=", "pIC50": 5.19}

====

Target: Human immunodeficiency virus type 1 protease (Human immunodeficiency virus 1, UniProt Q72874)
Assay: Binding affinity against HIV protease enzyme.(by Dixon analysis)
pKi: −log10 of the molar value.
READOUT: pKi

{"SMILES NOTATION": "CC(C)(C)NC(=O)[C@@H]1CCCN1C(=O)[C@@H](O)[C@H](Cc1ccccc1)NC(=O)[C@H](CC(N)=O)NC(=O)c1ccc2ccccc2n1", "OBS VALUE": 9.05}

====

Molecular target: Human immunodeficiency virus type 1 protease (Human immunodeficiency virus 1, UniProt Q72874)
Assay: Inhibitory activity of the Compound was tested against HIV protease enzyme
pIC50: −log10 of the molar value.
READOUT: pIC50

{"SMILES NOTATION": "CC(C)(C)OC(=O)[C@@H]1CCCN1C[C@H](O)[C@H](Cc1ccccc1)NC(=O)[C@H](CC(N)=O)NC(=O)OCc1ccccc1", "READOUT": "pIC50", "OBS VALUE": 6.74}

====

Target: Human immunodeficiency virus type 1 protease (Human immunodeficiency virus 1, UniProt Q72874)
Experiment: Inhibitory activity of the Compound was tested against HIV protease enzyme.(value reported by Rich etal)

{"SMILES NOTATION": "CC(C)(C)OC(=O)[C@@H]1CCCN1C[C@H](O)[C@H](Cc1ccccc1)NC(=O)[C@H](CC(N)=O)NC(=O)OCc1ccccc1", "IC50 [µM]": 0.45}

====

Biological target: UniProt Q72874
Test: Inhibitory activity of the Compound was tested against HIV protease enzyme
pIC50: −log10 of the molar value.
READOUT: pIC50

{"SMILES NOTATION": "CC(C)(C)OC(=O)[C@@H]1CCCN1C[C@H](O)[C@H](Cc1ccccc1)NC(=O)[C@H](CC(N)=O)NC(=O)OCc1ccccc1", "OBS VALUE": 6.89}

====

Biological target: UniProt Q72874
Assay: Inhibitory activity of the Compound was tested against HIV protease enzyme.
Exam item: assign class 1 to entries whose IC50 is below 20 nM and class 0 to entries at or above 20 nM. Note that a value of exactly 20 nM receives class 0.

{"SMILES NOTATION": "CC(C)(C)NC(=O)[C@@H]1CCCN1C(=O)[C@H](O)[C@H](Cc1ccccc1)NC(=O)[C@H](CC(N)=O)NC(=O)OCc1ccccc1", "TARGET ENTITY": "UniProt Q72874", "QUALITATIVE LABEL": "class 0"}
{"SMILES NOTATION": "CC[C@H](C)[C@H](NC(=O)[C@@H]1CCCN1C(=O)[C@@H](O)[C@H](Cc1ccccc1)NC(=O)[C@@H](CC(N)=O)NC(=O)OCc1ccccc1)C(=O)N[C@H](C(=O)OC)C(C)C", "TARGET ENTITY": "UniProt Q72874", "QUALITATIVE LABEL": "class 1"}
{"SMILES NOTATION": "CC(C)(C)NC(=O)[C@@H]1C[C@@H]2CCCC[C@@H]2CN1C(=O)[C@@H](O)[C@H](Cc1ccccc1)NC(=O)[C@H](CC(N)=O)NC(=O)c1ccc2ccccc2n1", "TARGET ENTITY": "UniProt Q72874", "QUALITATIVE LABEL": "class 0"}
{"SMILES NOTATION": "CC(C)(C)NC(=O)[C@@H]1CCCN1C(=O)[C@@H](O)[C@H](Cc1ccccc1)NC(=O)[C@H](CC(N)=O)NC(=O)c1ccc2ccccc2n1", "TARGET ENTITY": "UniProt Q72874", "QUALITATIVE LABEL": "class 1"}
{"SMILES NOTATION": "CC(C)[C@H](NC(=O)OCc1ccccc1)C(=O)N[C@@H](Cc1ccccc1)[C@H](O)C(=O)N1CCC[C@H]1C(=O)NC(C)(C)C", "TARGET ENTITY": "UniProt Q72874", "QUALITATIVE LABEL": "class 1"}
{"SMILES NOTATION": "CC(C)(C)NC(=O)[C@@H]1C[C@@H]2CCCC[C@@H]2CN1C(=O)[C@@H](O)[C@H](Cc1ccccc1)NC(=O)[C@H](CC(N)=O)NC(=O)OCc1ccccc1", "TARGET ENTITY": "UniProt Q72874", "QUALITATIVE LABEL": "class 0"}
{"SMILES NOTATION": "CC(C)[C@H](NC(=O)COc1cccc2ccccc12)C(=O)N[C@@H](Cc1ccccc1)[C@H](O)C(=O)N1CCC[C@H]1C(=O)NC(C)(C)C", "TARGET ENTITY": "UniProt Q72874", "QUALITATIVE LABEL": "class 1"}
{"SMILES NOTATION": "CC(C)(C)NC(=O)[C@@H]1CCCN1C(=O)[C@@H](O)[C@H](Cc1ccccc1)NC(=O)[C@H](CC(N)=O)NC(=O)OCc1ccccc1", "TARGET ENTITY": "UniProt Q72874", "QUALITATIVE LABEL": "class 1"}
{"SMILES NOTATION": "CC(C)(C)NC(=O)[C@@H]1CCCN1C(=O)[C@@H](O)[C@H](Cc1ccccc1)NC(=O)[C@H](CC(N)=O)NC(=O)COc1ccc2ccccc2c1", "TARGET ENTITY": "UniProt Q72874", "QUALITATIVE LABEL": "class 1"}
{"SMILES NOTATION": "CC(C)(C)NC(=O)[C@@H]1CCCN1C(=O)[C@@H](O)[C@H](Cc1ccccc1)NC(=O)[C@H](CC(N)=O)NC(=O)COc1cccc2ccccc12", "TARGET ENTITY": "UniProt Q72874", "QUALITATIVE LABEL": "class 1"}
{"SMILES NOTATION": "CC(C)(C)NC(=O)[C@@H]1CCCCN1C(=O)[C@@H](O)[C@H](Cc1ccccc1)NC(=O)[C@H](CC(N)=O)NC(=O)OCc1ccccc1", "TARGET ENTITY": "UniProt Q72874", "QUALITATIVE LABEL": "class 0"}
{"SMILES NOTATION": "CC(C)(C)NC(=O)[C@@H]1CCCN1C(=O)[C@@H](O)[C@H](Cc1ccccc1)NC(=O)OCc1ccccc1", "TARGET ENTITY": "UniProt Q72874", "QUALITATIVE LABEL": "class 0"}
{"SMILES NOTATION": "CC[C@H](C)[C@H](NC(=O)[C@@H]1CCCN1C(=O)[C@H](O)[C@H](Cc1ccccc1)NC(=O)[C@H](CC(N)=O)NC(=O)OCc1ccccc1)C(=O)N[C@H](C(=O)OC)C(C)C", "TARGET ENTITY": "UniProt Q72874", "QUALITATIVE LABEL": "class 0"}
{"SMILES NOTATION": "CC(C)(C)NC(=O)[C@@H]1CCCN1C(=O)C(=O)[C@H](Cc1ccccc1)NC(=O)OCc1ccccc1", "TARGET ENTITY": "UniProt Q72874", "QUALITATIVE LABEL": "class 0"}
